System: Rat fibroblasts (CREF)
Assay: Peg3 promoter luciferase inhibitors, potency, dose response, cell-based, HeLa, CREF/GAPDH counter-screen panel (AID 624167)
Details: CREF/GAPDH counter-screens, run 2, dose range 1, individual replicate IC50 per panel
pIC50: −log10 of the molar value.
Label Satisfied when pIC50 is at or above 5; otherwise label Not satisfied.

1) O=C(N/N=C\c1c(O)ccc2ccccc12)c1ccc(Cn2cccn2)o1	Not satisfied
2) O=C(O)c1ccc(N/N=C/c2ccc(OC(=O)c3cccc(Cl)c3)cc2)cc1	Not satisfied
3) O=C(Nc1ccccc1C(=O)Nc1nnc(C(F)(F)F)s1)c1ccccc1	Not satisfied
4) Cc1ccsc1/C=N/Nc1cccc(C(=O)O)c1	Not satisfied
5) Cc1cc(C(=O)COC(=O)c2ccccc2O)c(C)n1CC1CCCO1 (configuration not stated)	Satisfied
6) COc1ccc(/C=C/c2nc3ccccc3n2C)cc1	Satisfied
7) C=CCn1c(C)cc(C2=NNC(=NCC)SC2)c1C	Satisfied
8) Cc1ccc(-c2nc(-c3ccccn3)no2)cc1Cl	Satisfied
9) COC(CNC(=O)c1ccc2c3c(onc13)-c1ccccc1C2=O)OC	Not satisfied
10) C(=NN1CCCCCC1)c1ccc2ccccc2n1	Satisfied
11) CCC(=O)NC(c1ccc(C)cc1)c1ccc2cccnc2c1O (configuration not stated)	Not satisfied
12) O=c1cnnc(N/N=C/c2ccccn2)[nH]1	Not satisfied
13) COc1cccc2c1C(=O)c1c(O)c3c(c(O)c1C2=O)CC(O)(C(C)=NNC(=O)c1ccc(Cl)c(Cl)c1)CC3OC1CC(N)C(O)C(C)O1 (configuration not stated)	Satisfied
14) C=Cc1cc(OC)c2c(c1)c(=O)oc1c2cc(OC)c2c(O)ccc(C3OC(C)C(O)C(C)(O)C3O)c21 (configuration not stated)	Not satisfied
15) CCOc1ccc(NC(=O)Nc2cccc(C(=O)O)c2)cc1	Satisfied
16) O=c1cc(-c2ccc(O)cc2)oc2ccc3ccccc3c12	Satisfied
17) COC(COC(N)=O)C1=C(N2CC2)C(=O)C(C)=C(N2CC2)C1=O (configuration not stated)	Satisfied
18) COc1cc(/C=C2\SC(=Nc3ccccc3OC)NC2=O)ccc1O	Not satisfied
19) CCOc1ccc(C(=O)O/N=C(\N)c2ccccn2)cc1	Satisfied
20) CC1CC(C)C(=O)C(C(CC2CC(=O)NC(=O)C2)OC(=O)CC(=O)c2ccccc2)C1 (configuration not stated)	Not satisfied
21) O=C(NC(=O)c1ccccc1)Nc1ccccn1	Satisfied
22) CN1C/C(=C/c2ccccc2[N+](=O)[O-])C(=O)/C(=C\c2ccccc2[N+](=O)[O-])C1	Not satisfied
23) CC(=O)n1cc(N(C(=O)CCl)c2ccc(C)cc2)c2ccccc21	Satisfied
24) O=C(/C=C/c1ccc(Cl)c([N+](=O)[O-])c1)c1ccc(O)cc1	Not satisfied
25) Cc1nc(C)c(C(=O)N/N=C/c2cc(Br)ccc2O)s1	Not satisfied
26) O=C(N/N=C/c1c(O)ccc2ccccc12)c1ccc(CO)nc1	Not satisfied
27) CC(C)(C)C(=O)Nc1ccc(NC(=O)c2ccco2)nc1	Satisfied
28) Cc1cnc(NC(=O)c2ccc3c(c2)OCCO3)s1	Satisfied
29) COc1ccc2c(c1)c(=Cc1ccc(N(C)C)cc1)c1cc(-c3ccccc3)[n+](C)n12	Not satisfied
30) Cc1cccc(/C=N/Nc2ccc3ccccc3n2)c1	Satisfied

* * *

System: Rat fibroblasts (CREF)
Test: Peg3 promoter luciferase inhibitors, potency, dose response, cell-based, HeLa, CREF/GAPDH counter-screen panel (AID 624167)
Conditions: CREF/GAPDH counter-screens, run 2, dose range 1, individual replicate IC50 per panel
Classify on IC50 using b0 (below 2 µM), b1 (2 µM to below 20 µM), b2 (20 µM or more)

1. CS(=O)(=O)Nc1cccc(NC(=O)C2Cc3c(-c4cccc(F)c4)ccnc3O2)c1 (stereo not given)	b2
2. CCc1ccc(/C=C2\SC(=S)N(CCCC(=O)NC3=NCCS3)C2=O)cc1	b2
3. COc1ccccc1Nc1nc(-c2sc(NC(=O)c3ccco3)nc2C)cs1	b2
4. COc1ccc(CCN2C(=O)C=CC2=O)cc1OC	b1
5. Clc1ccccc1/C=C/c1nc(-c2ccccn2)no1	b2
6. Cc1oc(-c2ccc3c(c2)OCCO3)cc1C(=O)O	b2
7. CCC(=O)NC(c1cccs1)c1cc(Cl)c2cccnc2c1O (stereo not given)	b0
8. Cc1ccccc1OCC(=O)Nc1cccc(C(=O)O)c1	b0
9. CCOc1cccc(/C=N/NC(=S)Nc2cc(S(=O)(=O)N3CCOCC3)ccc2N2CCOCC2)c1O	b2
10. O=C(O)c1cccc(COc2ccc(CO)cc2Cl)c1	b1
11. OCC1OC(n2ccc3c(NO)ncnc32)C(O)C1O (stereo not given)	b1
12. COc1ccccc1CNCC(O)Cn1c2ccccc2c2ccccc21 (stereo not given)	b1
13. Cc1ccc(-c2cc3c(nn2)-c2ccccc2C3=O)cc1	b0
14. CCCCC(=O)NC(c1ccc(OC)cc1)c1ccc2cccnc2c1O (stereo not given)	b2
15. C=CCn1c(C)cc(C(=O)COc2ccc(C)nc2[N+](=O)[O-])c1C	b2
16. O=C(c1ccc(Cl)cc1)N1CCCCC(Sc2nnc(-c3ccc4c(c3)OCO4)o2)C1=O (stereo not given)	b0
17. CCCCC(=O)NC(c1ccccc1)c1ccc2cccnc2c1O (stereo not given)	b2
18. CN(C)c1ccc(/C=C2\SC(=O)N(CCc3nnc(N)s3)C2=O)cc1	b1
19. O=C(NNC(=O)c1cccnc1SCc1cccc([N+](=O)[O-])c1)c1ccccn1	b2
20. CC(=O)NC(c1ccc(Cl)cc1)c1ccc2cccnc2c1O (stereo not given)	b2
21. CN(C)CC1CCC/C(=C\c2ccc(OC(=O)c3ccc(Cl)cc3)cc2)C1=O (stereo not given)	b2
22. C/C(=N\NC(=O)c1cc(C2CC2)nc2ccccc12)c1ccc(O)cc1O	b2
23. NC(Cc1ccc(F)cc1)c1csc(Nc2cc(Oc3ccccc3)ncn2)n1 (stereo not given)	b1
24. COc1ccc(C(=O)Nc2nc3ccccc3s2)c(OC)c1	b0
25. Cc1ccc(C(=O)Nc2cc3ccccc3oc2=O)cc1	b1
26. O=C(Nc1nc2cc3c(cc2s1)OCCO3)C1=COCCO1	b0
27. O=C(O)c1ccc(CN2C(=O)c3cccc4c([N+](=O)[O-])ccc(c34)C2=O)cc1	b2
28. Cc1cc(N2CCN(C)CC2)ccc1NC(=O)c1c2c(nc3ccccc13)CCN(Cc1ccccc1)C2	b1
29. COc1ccc(C(=O)/C=C/Nc2ccccn2)cc1	b1
30. CCCC(=O)NC(c1ccccc1)c1ccc2cccnc2c1O (stereo not given)	b2
31. Cc1ccc(-n2[nH]c(=O)c(-c3ccccn3)c2C)cc1	b1
32. CC(=O)CSc1ccc(-c2nc3cc(C)c(C)cc3[nH]2)cn1	b1
33. CCSc1nc2ccccc2n1C(=O)/C=C\c1ccc(OC)c(OC)c1	b2
34. COCCn1c(C)cc(C(=O)COC(=O)c2cccc(O)c2)c1C	b0
35. Cc1ccc(C(C[N+](=O)[O-])Sc2ccc(N)cc2)cc1 (stereo not given)	b2

* * *

Tested on: Rat fibroblasts (CREF)
Assay: Peg3 promoter luciferase inhibitors, potency, dose response, cell-based, HeLa, CREF/GAPDH counter-screen panel (AID 624167)
Conditions: CREF/GAPDH counter-screens, mean of runs
The source made the active and inactive calls.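 How the source made its calls: active means mean IC50 for reducing PEG3 promoter reporter signal at or below a set limit, with IC50 above the limit in both counter screens; inactive means the rest, including counter screen hits.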
Outcomes: y (active), n (inactive)

1. O=[N+]([O-])c1ccc(-c2ccc(/C=N/Nc3nc(NCc4ccccc4)nc(N4CCOCC4)n3)o2)cc1	y
2. COc1ccc(C(NC(C)=O)c2ccc3cccnc3c2O)c(OC)c1 (configuration not stated)	n
3. Oc1c(Br)cc(Br)c2cccnc12	y
4. C/C(=N/NC(=O)c1cc(C2CC2)[nH]n1)c1cccs1	y
5. CCCn1nc(C(=O)Nc2nc(-c3ccccn3)cs2)c2ccccc2c1=O	n
6. Cc1ccc(-c2cc3c(nn2)-c2ccccc2C3=O)cc1	y
7. N=c1n(CCN2CCCCC2)c2ccccc2n1CC(O)c1ccc(Cl)c(Cl)c1 (configuration not stated)	y

* * *

System: Rat fibroblasts (CREF)
Test: Peg3 promoter luciferase inhibitors, potency, dose response, cell-based, HeLa, CREF/GAPDH counter-screen panel (AID 624167)
Settings: CREF/GAPDH counter-screens, run 1, dose range 1, individual replicate IC50 per panel
READOUT NAME: log10 IC50 (log10 of the value in µM)

1) O=C(Nc1nc2ccccc2[nH]1)c1ccccc1F	0.10
2) Cc1cc(N2CCN(C)CC2)ccc1NC(=O)c1c2c(nc3ccccc13)CCN(Cc1ccccc1)C2	0.39
3) COc1cc(C(=O)N/N=C(\c2ccccc2)c2ccccn2)cc(OC)c1OC	1.65
4) COc1cc(/C=N/O)ccc1OCc1ccc(C(=O)O)cc1	1.00
5) Oc1c(Br)cc(Br)c2cccnc12	1.07
6) O=C(c1ccc(Cl)cc1)N1CCCCC(Sc2nnc(-c3ccc4c(c3)OCO4)o2)C1=O (stereo not drawn)	0.59
7) CN(C)c1ccc(C=c2c3ccccc3n3c2cc(-c2ccccc2)[n+]3C)cc1	1.44

This collection of values is drawn from PubChem BioAssay AID624167.
